Please respond with reported pKi for every item in the list.
# Assay System: endogenous human UII receptor (Homo sapiens, UniProt Q9UKP6)
# Sequence (Q9UKP6 whole entry): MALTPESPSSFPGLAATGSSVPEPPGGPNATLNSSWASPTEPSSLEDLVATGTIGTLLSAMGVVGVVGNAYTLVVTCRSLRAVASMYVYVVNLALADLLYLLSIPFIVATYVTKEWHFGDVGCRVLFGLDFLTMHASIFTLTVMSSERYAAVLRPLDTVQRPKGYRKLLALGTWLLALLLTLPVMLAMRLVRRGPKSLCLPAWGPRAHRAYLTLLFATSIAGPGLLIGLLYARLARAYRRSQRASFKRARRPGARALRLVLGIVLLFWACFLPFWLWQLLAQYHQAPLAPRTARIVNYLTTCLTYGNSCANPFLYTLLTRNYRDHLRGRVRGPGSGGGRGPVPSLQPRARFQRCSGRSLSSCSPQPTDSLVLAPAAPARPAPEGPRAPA
# Experiment Notes: Human Radioligand Binding Assay ((^125I)-U-II binding to human skeletal muscle myoblasts)
When answering, recall that pKi equals minus log10 of the concentration in mol/L, and write that number alone.

Q: What value of pKi on endogenous human UII receptor (Homo sapiens, UniProt Q9UKP6) does COc1ccc(C(CN(C)C)N2C(=O)c3cccc(N4CCN([C@H](C)c5ccccc5)CC4)c3C2=O)cc1OC (stereo partly shown) have?
Ans: 5.55

Q: Also, COc1ccc([C@@H](CCCNS(=O)(=O)c2cccs2)N2C(=O)c3cccc(OCCN(C)C)c3C2=O)cc1OC please.
Ans: 6.49

* * *

Field: pIC50. Provide a value for each of the compounds that follow.
# Assay System: rat GPR14 (U-II receptor) (Rattus norvegicus, UniProt P49684)
# Construct: expressed in transfected cells
# Sequence (P49684 whole entry): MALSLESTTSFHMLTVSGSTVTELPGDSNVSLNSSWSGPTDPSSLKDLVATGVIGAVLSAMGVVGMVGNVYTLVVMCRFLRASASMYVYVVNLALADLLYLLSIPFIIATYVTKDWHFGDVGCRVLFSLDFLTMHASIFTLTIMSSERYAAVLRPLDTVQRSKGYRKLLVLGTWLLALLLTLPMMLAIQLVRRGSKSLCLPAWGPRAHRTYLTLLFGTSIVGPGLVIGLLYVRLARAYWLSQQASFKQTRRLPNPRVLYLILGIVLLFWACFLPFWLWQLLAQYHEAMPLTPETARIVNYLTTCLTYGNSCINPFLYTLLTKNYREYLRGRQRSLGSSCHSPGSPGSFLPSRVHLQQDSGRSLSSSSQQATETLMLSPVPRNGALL
# Experiment Notes: Rat UII Calcium Mobilization FLIPR Assay
# Format: cell-based
# Protocol Conditions: Inhibition of Acetyl-cyclic[Cys-Phe-Trp-Lys-(2-Nal)-Cys]-NH2 induced Ca2+ mobilization (FLIPR) in CHO cells transfected with rat UII receptor; read-out: IC50
FYI, pIC50 means -log10 of a concentration in mol per litre.

Q: Looking for the measured pIC50 of COc1ccc(CCN2C(=O)c3cccc(N4CC5CCC(C4)N5Cc4ccccc4)c3C2=O)cc1OC , can you help?
Ans: 5.55

Q: Next entry: COc1cc(CN2C(=O)c3cccc(N4CC5CCC(C4)N5Cc4ccccc4)c3C2=O)cc(OC)c1
Ans: 4.89

Q: Likewise for COc1ccc(CN2C(=O)c3c(Cl)ccc(N4CC5CCC(C4)N5Cc4ccccc4)c3C2=O)cc1OC ?
Ans: 6.72

Q: Now try COc1cc(CN2C(=O)c3cccc(N4CCN([C@H](C)c5ccccc5)CC4)c3C2=O)ccc1O .
Ans: 6.09

Q: Follow-up item: COc1ccc(CN2C(=O)c3cccc(N4CCN(Cc5cccc(C)c5)CC4)c3C2=O)cc1OC
Ans: 5.19

Q: Now the compound COc1cc(CN2C(=O)c3cccc(N4CCN(Cc5ccccc5)CC4)c3C2=O)cc(OC)c1OC
Ans: 5.23

Q: Also check COc1ccc(C(CCCNS(C)(=O)=O)N2C(=O)c3cccc(N4CCN([C@H](C)c5ccccc5)CC4)c3C2=O)cc1OC (stereo partly shown)
Ans: 7.00

Q: Subsequent entry: COc1ccc(N2C(=O)c3cccc(N4CC5CCC(C4)N5Cc4ccccc4)c3C2=O)cc1OC
Ans: 4.32

Q: Now the compound COc1ccc(CN2C(=O)c3cccc(N4CC5CCC(C4)N5C(C)c4ccccc4)c3C2=O)cc1OC (stereo not shown)
Ans: 5.31

Q: Consider next the compound COc1ccc(CN2C(=O)c3cccc(C4=CC5CCC(C4)N5Cc4ccccc4)c3C2=O)cc1OC (stereo not shown) in the same way.
Ans: 4.77

Q: Please do the same for COc1ccc(CN2C(=O)c3cccc(N4CCN(C(C)(C)c5ccccc5)CC4)c3C2=O)cc1OC as well.
Ans: 5.38

Q: Could you do the same for O=C1c2cccc(N3CC4CCC(C3)N4Cc3ccccc3)c2C(=O)N1Cc1ccccn1 , please?
Ans: 4.47

Q: Now this one: COc1ccc(CN2C(=O)c3cccc(N4CCN(C(c5ccccc5)C5CC5)CC4)c3C2=O)cc1OC (stereo not shown)
Ans: 5.42

Q: What do you have for COc1ccc(CN2C(=O)c3cccc(N4C[C@@H](C)N(Cc5ccccc5)[C@@H](C)C4)c3C2=O)cc1OC ?
Ans: 5.00

Q: Try the compound CCC(c1ccccc1)N1CCN(c2cccc3c2C(=O)N(Cc2ccc(OC)c(OC)c2)C3=O)CC1 (stereo not shown)
Ans: 6.39

Q: Please answer likewise for CCOc1cc(CN2C(=O)c3cccc(N4CCN([C@H](C)c5ccccc5)CC4)c3C2=O)ccc1OC
Ans: 5.77
